Biological target: PETNR (Enterobacter cloacae)
Sequence (P71278 1-365): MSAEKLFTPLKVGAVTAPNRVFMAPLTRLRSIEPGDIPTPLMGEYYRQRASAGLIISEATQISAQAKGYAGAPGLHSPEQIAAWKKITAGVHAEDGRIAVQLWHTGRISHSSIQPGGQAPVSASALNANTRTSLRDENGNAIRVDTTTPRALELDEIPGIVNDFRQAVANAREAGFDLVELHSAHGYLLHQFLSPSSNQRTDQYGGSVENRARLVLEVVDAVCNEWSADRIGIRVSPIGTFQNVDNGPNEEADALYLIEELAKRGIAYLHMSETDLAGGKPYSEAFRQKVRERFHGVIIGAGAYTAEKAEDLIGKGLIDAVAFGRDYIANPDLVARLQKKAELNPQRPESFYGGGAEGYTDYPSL
Assay: Steady-state kinetics of PETNR with α,β-unsaturated activated alkenes
Type: biochemical, Enterobacter cloacae st. PB2
Details: substrate inhibition; anaerobic, pH 7.0, 25 °C, NADPH 100 μM
value-type: Ki (µM)
Numbers only, in µM.

IN: What value of Ki has been recorded for this entry: CCC=C(C)C=O [10a, 2-methylpentenal]
OUT: 1930

----------
Biological target: PETNR (Enterobacter cloacae)
Experiment: Substrate screen of PETNR by spectrophotometric assays or GC analysis
Format: biochemical, Enterobacter cloacae st. PB2
value-type: activity of PETNR towards the substrate (in words)

Example cases with answers are listed next.
# compound, result-value
measured = [
    ("COC(=O)C1=CCCCC1 [methyl cyclohexenecarboxylate, methyl 1-cyclohexene-1-carboxylate]", "did not reduce"),
    ("O=C(O)C1=CCCCC1", "did not reduce"),
    ("C/C=C/C#N", "no activity"),
    ("BrC1C=CCCC1 (stereo not shown)", "no activity"),
    ("N#C/C=C/c1ccccc1 [trans-cinnamonitrile]", "no activity"),
    ("BrC=Cc1ccccc1", "no activity"),
]

// for each compound in input: emit activity of PETNR towards the substrate (in words)
1. N#CC1=CCCCC1
2. COC(=O)/C=C/c1ccccc1 [methyl trans-cinnamate]
3. NC(=O)/C=C/c1ccccc1 [trans-cinnamide]

OUT:
no activity
did not reduce
did not reduce
